Experiment: pKa and pH dependent aqueous solubility of the Agent
Assay type: physicochemical
Settings: two basic groups
MEASURED_ATTRIBUTE: pKa

For reference, reported pKa for COc1cc2ncnc(Nc3ccc(F)c(Cl)c3)c2cc1OCCCN1CCOCC1 stands at ~5.3
